# Assay summary: in vivo
# Stated conditions: male, NodCB17 SCID, mouse, spleen, iv, 0.061 nmol, total radioactivity
Measure: tissue uptake at 1 h
Please make sure the unit comes right after the number.

What measured tissue uptake at 1 h goes with CC(C)C[C@H](NC(=O)C[C@H](O)[C@H](CC(C)C)NC(=O)[C@H](Cc1c[nH]cn1)NC(=O)CNC(=O)[C@@H](NC(=O)[C@H](C)NC(=O)[C@H](Cc1c[nH]c2ccccc12)NC(=O)[C@H](CCC(N)=O)NC(=O)[C@@H](Cc1ccccc1)NC(=O)CCOCCOCCOCCOCCNC(=O)OC1CCCC2=CNN=C(c3ccc(CNC(=O)CN4CCN(CC(=O)O)CCN(CC(=O)O)CCN(CC(=O)O)CC4)cc3)C2CC1)C(C)C)C(N)=O (stereo partly shown) [[90Y]Y-DOTA-Tz-TCO-PEG4-AR, metal not drawn] ?
1.08 %ID/g

###

Please respond with reported Biodistribution: Lung for every item in the list.
# Assay summary: Biodistribution of [111In]In-radiocomplexes in healthy mice
# Type: in vivo
# Stated conditions: 1 h p.i.
Number in % I.D./g, nothing else.

Which Biodistribution: Lung value is on record for O=C([O-])CN1CCN(CC(=O)[O-])CCN(CC(=O)NCc2ccc(-c3nncnn3)cc2)CCN(CC(=O)[O-])CC1.[111In+3] [[111In]In-DOTA-Tz] ?
0.29

Quick one: Biodistribution: Lung for O=C([O-])CN1CCN(CC(=O)[O-])CCN(C(CCC(=O)NCc2ccc(-c3nncnn3)cc2)C(=O)[O-])CCN(CC(=O)[O-])CC1.[111In+3] (stereo not shown) [[111In]In-DOTAGA-Tz] ?
0.8

I am curious: what Biodistribution: Lung value has been reported for O=C([O-])CN1CCN(CC(=O)[O-])CCN(CC(=O)NCCOCCOCCOCCOCCOCCOCCOCCOCCOCCOCCOCCNC(=O)CCCC(=O)NCc2ccc(-c3nncnn3)cc2)CCN(CC(=O)[O-])CC1.[111In+3] [[111In]In-DOTA-PEG-Tz] ?
0.36

For the compound shown here, O=C([O-])CN1CCN(CC(=O)[O-])CCN(C(CCC(=O)NCCOCCOCCOCCOCCOCCOCCOCCOCCOCCOCCOCCNC(=O)CCCC(=O)NCc2ccc(-c3nncnn3)cc2)C(=O)[O-])CCN(CC(=O)[O-])CC1.[111In+3] (stereo not shown) [[111In]In-DOTAGA-PEG-Tz] , give the reported Biodistribution: Lung.
0.3

###

For each of the compounds below, state its Biodistribution: Lung.
# Assay summary: Biodistribution of [111In]In-radiocomplexes in healthy mice
# Format: in vivo
# Stated conditions: 15 min p.i.
Answer with a number only, understood to be in % I.D./g.

Which value of Biodistribution: Lung has been reported for O=C([O-])CN1CCN(CC(=O)[O-])CCN(C(CCC(=O)NCc2ccc(-c3nncnn3)cc2)C(=O)[O-])CCN(CC(=O)[O-])CC1.[111In+3] (stereo not shown) [[111In]In-DOTAGA-Tz] in the records?
1.9

Which value of Biodistribution: Lung has been reported for O=C([O-])CN1CCN(CC(=O)[O-])CCN(C(CCC(=O)NCCOCCOCCOCCOCCOCCOCCOCCOCCOCCOCCOCCNC(=O)CCCC(=O)NCc2ccc(-c3nncnn3)cc2)C(=O)[O-])CCN(CC(=O)[O-])CC1.[111In+3] (stereo not shown) [[111In]In-DOTAGA-PEG-Tz] in the records?
1.4

Record request: Biodistribution: Lung value, item O=C([O-])CN1CCN(CC(=O)[O-])CCN(CC(=O)NCCOCCOCCOCCOCCOCCOCCOCCOCCOCCOCCOCCNC(=O)CCCC(=O)NCc2ccc(-c3nncnn3)cc2)CCN(CC(=O)[O-])CC1.[111In+3] [[111In]In-DOTA-PEG-Tz]
1.6

Can you look up the measured Biodistribution: Lung of O=C([O-])CN1CCN(CC(=O)[O-])CCN(CC(=O)NCc2ccc(-c3nncnn3)cc2)CCN(CC(=O)[O-])CC1.[111In+3] [[111In]In-DOTA-Tz] for me?
1.8

###

# Assay summary: in vivo
# Stated conditions: male, NodCB17 SCID, mouse, prostate, iv, 0.061 nmol, total radioactivity
Measure: tissue uptake at 1 h
Number first, unit second: that is the form wanted.

Fill in the blank: the reported tissue uptake at 1 h of CC(C)C[C@H](NC(=O)C[C@H](O)[C@H](CC(C)C)NC(=O)[C@H](Cc1c[nH]cn1)NC(=O)CNC(=O)[C@@H](NC(=O)[C@H](C)NC(=O)[C@H](Cc1c[nH]c2ccccc12)NC(=O)[C@H](CCC(N)=O)NC(=O)[C@@H](Cc1ccccc1)NC(=O)CCOCCOCCOCCOCCNC(=O)OC1CCCC2=CNN=C(c3ccc(CNC(=O)CN4CCN(CC(=O)O)CCN(CC(=O)O)CCN(CC(=O)O)CC4)cc3)C2CC1)C(C)C)C(N)=O (stereo partly shown) [[90Y]Y-DOTA-Tz-TCO-PEG4-AR, metal not drawn] is ____.
3.48 %ID/g

###

# Assay summary: Biodistribution of [111In]In-radiocomplexes in healthy mice
# Format: in vivo
# Stated conditions: 15 min p.i.
Measure: Biodistribution: Pancreas
Quote the value and follow it with the unit of measurement.

Consider the compound shown here: O=C([O-])CN1CCN(CC(=O)[O-])CCN(CC(=O)NCCOCCOCCOCCOCCOCCOCCOCCOCCOCCOCCOCCNC(=O)CCCC(=O)NCc2ccc(-c3nncnn3)cc2)CCN(CC(=O)[O-])CC1.[111In+3] [[111In]In-DOTA-PEG-Tz] What is its recorded Biodistribution: Pancreas?
0.53 ± 0.07 % I.D./g

Can you look up the measured Biodistribution: Pancreas of O=C([O-])CN1CCN(CC(=O)[O-])CCN(C(CCC(=O)NCc2ccc(-c3nncnn3)cc2)C(=O)[O-])CCN(CC(=O)[O-])CC1.[111In+3] (stereo not shown) [[111In]In-DOTAGA-Tz] for me?
0.6 ± 0.1 % I.D./g

Which Biodistribution: Pancreas is listed for O=C([O-])CN1CCN(CC(=O)[O-])CCN(C(CCC(=O)NCCOCCOCCOCCOCCOCCOCCOCCOCCOCCOCCOCCNC(=O)CCCC(=O)NCc2ccc(-c3nncnn3)cc2)C(=O)[O-])CCN(CC(=O)[O-])CC1.[111In+3] (stereo not shown) [[111In]In-DOTAGA-PEG-Tz] ?
0.53 ± 0.05 % I.D./g

Query (compound): O=C([O-])CN1CCN(CC(=O)[O-])CCN(CC(=O)NCc2ccc(-c3nncnn3)cc2)CCN(CC(=O)[O-])CC1.[111In+3] [[111In]In-DOTA-Tz] ; field requested: Biodistribution: Pancreas
0.4 ± 0.2 % I.D./g

###

# Assay summary: in vivo
# Stated conditions: male, NodCB17 SCID, mouse, bone, iv, 0.061 nmol, total radioactivity
Measure: tissue uptake at 1 h (%ID/g)
Entry rule: numbers only, all in %ID/g.

Fill blank: measured tissue uptake at 1 h of the compound CC(C)C[C@H](NC(=O)C[C@H](O)[C@H](CC(C)C)NC(=O)[C@H](Cc1c[nH]cn1)NC(=O)CNC(=O)[C@@H](NC(=O)[C@H](C)NC(=O)[C@H](Cc1c[nH]c2ccccc12)NC(=O)[C@H](CCC(N)=O)NC(=O)[C@@H](Cc1ccccc1)NC(=O)CCOCCOCCOCCOCCNC(=O)OC1CCCC2=CNN=C(c3ccc(CNC(=O)CN4CCN(CC(=O)O)CCN(CC(=O)O)CCN(CC(=O)O)CC4)cc3)C2CC1)C(C)C)C(N)=O (stereo partly shown) [[90Y]Y-DOTA-Tz-TCO-PEG4-AR, metal not drawn] is ____.
0.7

###

# Assay summary: in vivo
# Stated conditions: male, NodCB17 SCID, mouse, stomach, iv, 0.061 nmol, total radioactivity
Measure: tissue uptake at 0.25 h (%ID/g)
The reply should be a number in %ID/g, with the unit left off.

I would be grateful if you could share the reported tissue uptake at 0.25 h for CC(C)C[C@H](NC(=O)C[C@H](O)[C@H](CC(C)C)NC(=O)[C@H](Cc1c[nH]cn1)NC(=O)CNC(=O)[C@@H](NC(=O)[C@H](C)NC(=O)[C@H](Cc1c[nH]c2ccccc12)NC(=O)[C@H](CCC(N)=O)NC(=O)[C@@H](Cc1ccccc1)NC(=O)CCOCCOCCOCCOCCNC(=O)OC1CCCC2=CNN=C(c3ccc(CNC(=O)CN4CCN(CC(=O)O)CCN(CC(=O)O)CCN(CC(=O)O)CC4)cc3)C2CC1)C(C)C)C(N)=O (stereo partly shown) [[90Y]Y-DOTA-Tz-TCO-PEG4-AR, metal not drawn] .
4.72

###

# Assay summary: in vivo
# Stated conditions: male, NodCB17 SCID, mouse, spleen, iv, 0.061 nmol, total radioactivity
Measure: tissue uptake at 0.25 h (%ID/g)
Give the value in %ID/g but do not write %ID/g after it.

// query tissue uptake at 0.25 h value for entry CC(C)C[C@H](NC(=O)C[C@H](O)[C@H](CC(C)C)NC(=O)[C@H](Cc1c[nH]cn1)NC(=O)CNC(=O)[C@@H](NC(=O)[C@H](C)NC(=O)[C@H](Cc1c[nH]c2ccccc12)NC(=O)[C@H](CCC(N)=O)NC(=O)[C@@H](Cc1ccccc1)NC(=O)CCOCCOCCOCCOCCNC(=O)OC1CCCC2=CNN=C(c3ccc(CNC(=O)CN4CCN(CC(=O)O)CCN(CC(=O)O)CCN(CC(=O)O)CC4)cc3)C2CC1)C(C)C)C(N)=O (stereo partly shown) [[90Y]Y-DOTA-Tz-TCO-PEG4-AR, metal not drawn]
4.03
